Experiment: A High Throughput Confirmatory Assay used to Identify Novel Compounds that Inhibit Mycobacterium Tuberculosis in the absence of Glycerol using Purified and Synthesized Compounds (8).
Type: functional
Endpoint: IC90

Req: State the recorded IC90 for this entry: O=C(c1ccc(CNc2c(N3CCCC3)c(=O)c2=O)cc1)N1CCc2ccccc2C1
Resp: > 100 µM (active)

Req: Give its IC90 value. Item: CC1CCN(C(=O)c2ccc(CNc3c(N4CCCC4)c(=O)c3=O)cc2)CC1
Resp: > 100 µM (active)

Req: Item under review: O=C(c1ccc(CNc2c(N3CCCC3)c(=O)c2=O)cc1)N1CCC(c2ccccc2)CC1 . Reported IC90?
Resp: > 100 µM (active)

Req: Given the entry COc1ccc(N2CCN(C(=O)c3ccc(CNc4c(N5CCOCC5)c(=O)c4=O)cc3)CC2)cc1 , report its measured IC90.
Resp: > 100 µM (active)

Req: # input molecule: O=C(NCCc1ccc(Cl)cc1)c1ccc(CNc2c(N3CCOCC3)c(=O)c2=O)cc1 ; wanted: its IC90
Resp: > 100 µM (active)

====

Test: A High Throughput Confirmatory Assay used to Identify Novel Compounds that Inhibit Mycobacterium Tuberculosis in the absence of Glycerol using Purified and Synthesized Compounds (8).
Assay type: functional
Endpoint: IC90

Compound: CC1CC(C)CN(C(=O)c2ccc(CNc3c(N4CCCC4)c(=O)c3=O)cc2)C1 (configuration not stated)
IC90: > 100 µM (active)
--
Compound: O=C(c1ccc(CNc2c(N3CCCC3)c(=O)c2=O)cc1)N1CCN(c2ccccc2)CC1
IC90: > 100 µM (active)
--
Compound: CCOC(=O)N1CCC(/N=c2\c(O)c(O)\c2=N/c2cccc(CC)c2)CC1
IC90: > 59.3 µM (active)
--
Compound: CC1CCCN(C(=O)c2ccc(CNc3c(N4CCCCC4)c(=O)c3=O)cc2)C1 (configuration not stated)
IC90: > 100 µM (active)
--
Compound: CC(C)CCNC(=O)CSc1nc2c(c(=O)[nH]1)CCCCC2
IC90: > 100 µM (active)
--
Compound: CC(=O)c1ccc(NC(=O)c2ccc(CNc3c(N4CCOCC4)c(=O)c3=O)cc2)cc1
IC90: > 100 µM (active)

Req: Please look up its IC90: O=C(c1ccc(CNc2c(N3CCOCC3)c(=O)c2=O)cc1)N1CCC(c2ccccc2)CC1
Resp: > 68.9 µM (active)
